molecular target: SUMO-activating enzyme subunit 2 (Human); assay: Enzyme Assay
pIC50: −log10 of the molar value.
The entries below come with measured pIC50 values attached.

NS(=O)(=O)OC[C@H]1C[C@@H](Nc2ncncc2C(=O)c2cc(Cc3cccc(Br)n3)c(Cl)s2)C[C@@H]1O: > 8.00
CN1Cc2ccccc2[C@@H]1c1cc(C(=O)c2cncnc2N[C@@H]2C[C@H](COS(N)(=O)=O)[C@@H](O)C2)sc1Cl: > 8.00

Query block: What does the data say about its pIC50? Entry: "Cc1sc(C(=O)c2cncnc2N[C@@H]2C[C@H](COS(N)(=O)=O)[C@@H](O)C2)cc1[C@@H]1OCC(F)(F)c2ccc(Cl)cc21"
Result block: > 8.00

###

molecular target: SUMO-activating enzyme subunit 2 (Human); test: Enzyme Assay
The entries below come with measured IC50 values attached.

Use these answered entries as a reference point.
C[C@@]1(c2csc(C(=O)c3cncnc3N[C@@H]3C[C@H](COS(N)(=O)=O)[C@@H](O)C3)c2)NCCc2ccccc21: < 10 nM
CN1Cc2ccccc2[C@@H]1c1csc(C(=O)c2cncnc2N[C@@H]2C[C@H](COS(N)(=O)=O)[C@@H](O)C2)c1: < 10 nM

Query block: Record lookup: for SUMO-activating enzyme subunit 2 (Human), what IC50 belongs to "CN(c1ncncc1C(=O)c1cc([C@@H]2OCCc3ccc(Cl)cc32)c(CO)s1)[C@@H]1C[C@H](COS(N)(=O)=O)[C@@H](O)C1" ?
Result block: < 10 nM

Query block: Record lookup: for SUMO-activating enzyme subunit 2 (Human), what IC50 belongs to "Cc1sc(C(=O)c2cncnc2N[C@@H]2C[C@H](COS(N)(=O)=O)[C@@H](O)C2)cc1[C@@H]1OCC(F)(F)c2ncccc21" ?
Result block: 100 to 1000 nM

###

The entries below come with measured IC50 values attached.
Biological target: SUMO-activating enzyme subunit 2 (Human, UniProt Q9UBT2)
Sequence (Q9UBT2 whole entry): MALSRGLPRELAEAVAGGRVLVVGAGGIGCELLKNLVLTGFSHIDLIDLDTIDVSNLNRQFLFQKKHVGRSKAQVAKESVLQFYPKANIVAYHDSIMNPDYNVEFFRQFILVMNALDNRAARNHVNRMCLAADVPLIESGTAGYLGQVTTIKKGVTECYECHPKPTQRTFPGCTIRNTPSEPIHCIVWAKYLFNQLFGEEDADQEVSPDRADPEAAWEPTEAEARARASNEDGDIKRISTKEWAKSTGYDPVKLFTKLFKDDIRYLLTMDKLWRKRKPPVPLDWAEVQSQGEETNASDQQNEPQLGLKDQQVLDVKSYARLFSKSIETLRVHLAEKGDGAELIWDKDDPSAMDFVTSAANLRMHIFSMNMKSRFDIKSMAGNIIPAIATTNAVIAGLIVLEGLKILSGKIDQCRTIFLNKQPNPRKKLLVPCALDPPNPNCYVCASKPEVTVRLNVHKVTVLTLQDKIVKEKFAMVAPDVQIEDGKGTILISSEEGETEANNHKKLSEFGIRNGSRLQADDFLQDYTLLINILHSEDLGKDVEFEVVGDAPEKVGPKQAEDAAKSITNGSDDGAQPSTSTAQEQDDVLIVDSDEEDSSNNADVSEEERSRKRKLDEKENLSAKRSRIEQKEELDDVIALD
Assay: Enzyme Assay

Use these answered entries as a reference point.
CC(C)(C)OC(=O)N1CCc2ccc(Cl)cc2[C@@H]1c1cc(C(=O)c2cncnc2N[C@@H]2C[C@H](COS(N)(=O)=O)[C@@H](O)C2)sc1Cl [US10780090, Compound I-336]: 100 to 1000 nM
Cc1sc(C(=O)c2cncnc2N[C@@H]2C[C@H](COS(N)(=O)=O)[C@@H](O)C2)cc1[S@+]([O-])c1cccc(C(F)(F)F)c1 [US10780090, Compound I-69]: < 10 nM

Query block: What does the data say about its IC50? Entry: NS(=O)(=O)OC[C@H]1C[C@@H](Nc2ncncc2C(=O)c2cc(Cc3cccc(Br)c3)c(Cl)s2)C[C@@H]1O [US10780090, Compound I-112]
Result block: < 10 nM

Query block: What does the data say about its IC50? Entry: Cc1sc(C(=O)c2cncnc2N[C@@H]2C[C@H](COS(N)(=O)=O)[C@@H](O)C2)cc1[C@@H]1OCCc2ccc(C#N)cc21 [US10780090, Compound I-313]
Result block: < 10 nM

Query block: What does the data say about its IC50? Entry: CC(C)(C)OC(=O)N1CCc2ccc(Cl)cc2[C@@H]1c1csc(C(=O)c2cncnc2N[C@@H]2C[C@H](COS(N)(=O)=O)[C@@H](O)C2)c1 [US10780090, Compound I-334]
Result block: 100 to 1000 nM
